attribute.measured: melting point

I would be grateful if you could share the reported melting point for Nc1nc2c(s1)CCN(CC=Cc1cc(Br)c(N)c(Br)c1)CC2 .
198 to 199 °C

// query melting point value for entry COc1cc(N2C(=O)c3ccccc3C2=O)c2nc(Cl)cc(C)c2c1Oc1cccc(C(F)(F)F)c1
225 to 227 °C

Would you kindly share the measured melting point for COc1ccc(-c2cnc(N)c(Sc3ccc(C)cc3)n2)cc1 ?
107 to 110 °C

Could you share which melting point value was measured for COc1cc(Nc2c(C#N)cnc3cc(NC(C)=O)c(OC)cc23)c(Cl)cc1Cl ?
267 to 270 °C

What does the record list as melting point for O=C(Nc1ccc(Oc2ccnc(N3CCOCC3)n2)c2ccccc12)c1cc(F)cc(N2CCOCC2)c1 ?
104 to 106 °C

Return reported melting point; argument: CN1CCN2c3ccccc3Cn3c(c(CO)c4ccccc43)C2C1 (stereo unspecified)
184 to 189 °C

====

Would you mind telling me the reported melting point of each entry?

Data request, read-out melting point, for O=C(Nc1ccc(-n2nc(C(F)(F)F)cc2C(F)(F)F)cc1)c1cc(F)cc(F)c1F
169 to 170 °C

// query melting point value for entry N#Cc1ccc(-c2ccc(Cl)nn2)cc1
236 to 238 °C

Looking for the measured melting point of O=C1c2ccccc2CN1CCCCSc1ccncc1 , can you help?
57 to 58 °C

====

So I've got a bunch of compounds here, and I need their melting point values.

melting point lookup needed for CC(=O)Oc1ccc(-c2c3ccccc3c(Br)c3sc(C)c(C)c23)cc1 , thanks.
190 to 191 °C

Need melting point of CC(C)(C)OC(=O)CN(C(=O)CN(C(=O)CN1C(=O)c2ccccc2C1=O)c1ccccc1)c1ccccc1 , thanks.
80 °C

Param item = CCOC(=O)c1cnc2nc(C(F)(F)F)ccc2c1O ; retrieve measured melting point.
> 250 °C

Given the entry Cn1c(C(N)=O)c(-c2ccc(F)cc2)c2ncccc2c1=O , report its measured melting point.
300 to 301 °C

Need melting point of CCCCN(C(C)=O)c1cccc(-c2ccnc3c(C#N)cnn23)c1 , thanks.
146 to 148 °C

Could you share which melting point value was measured for Cc1c(NC(=O)CC(C)(C)C)c(C)c2c(c1-c1cccc(N(C)C)c1)OCC2c1ccc(C(C)C)cc1 (configuration not stated) ?
197 to 199 °C

Request the reported melting point associated with Cc1noc(NS(=O)(=O)c2ccc(N(C)C)cc2)c1C
152 to 154 °C

Need melting point, item Cc1c(C)c2c(c(C)c1NCc1ccccc1)C(c1ccc(-c3ccccc3)cc1)CO2 (configuration not stated)
77 to 78 °C

Any idea what its melting point is? The compound is COc1ccc(-n2nc(CCC(=O)NO)cc2-c2ccc(Cl)cc2)cc1
154 to 156 °C

Given the compound CN1CCN(c2ccc(S(=O)(=O)Oc3c(Cl)cc(Cl)cc3Cl)cc2)C1=O , what is its reported melting point?
185 to 187 °C

Using the record for O=C1NN=C(c2ccccc2)c2c[nH]c3cccc1c23 , report its melting point.
177 to 179 °C

Fill blank: measured melting point of the compound O=C(N[C@H]1CC[C@H](O)CC1)c1cc(F)cnc1Cl is ____.
197 to 200 °C

====

attribute.measured: melting point

What value of melting point has been reported for the following compound? COc1cc2ccccc2cc1NC(=O)Nc1cccc2ccccc12
155 to 156 °C

Requested field: melting point. Item: O=C(NN=Cc1ccc(C(F)(F)F)cc1)c1ccc(O)cc1
260 °C

What value of measured melting point is listed for COC(=O)c1cc(S(C)(=O)=O)nc(Cl)n1 ?
127 to 129 °C

Give the measured melting point of CON=C(c1cc(C)on1)c1ccccc1COc1ncc(Cl)cc1C(F)(F)F .
120 to 121 °C

Value lookup for melting point; key = CCON=C(C(C)=NOCc1ccccc1C(=NOC)C(=O)NC)c1ccc(OC[Si](C)(C)c2ccc(F)cc2)cc1
88 to 90 °C

Quick one: melting point for O=C1N2CCc3ccsc3C23SC1(c1ccccc1)CC3[N+](=O)[O-] (configuration not stated) ?
192 to 196 °C

Quick one: melting point of C=CCN(CC=C)c1nc(NC(=O)c2ccc(Cl)cc2Cl)n2oc(=O)nc2n1 ?
163 to 164 °C

// lookup melting point for CN(C)C(=O)CN1CCc2ccc([N+](=O)[O-])cc2CC1
94 to 96 °C

Which measured melting point value corresponds to C/C=C/C(=O)NC(=O)OC(C)(C)C ?
138 to 139 °C

State the recorded melting point for this entry: O=c1c2ccccc2[nH]c2c1cnn2-c1ccccn1
240 to 242 °C

# melting point lookup, item COCc1nc(S)nc(O)c1OC
187 to 189 °C

Which measured melting point value corresponds to CC(C)n1nc(-c2c(NCCO)nc(N)nc2-c2ccccc2)ccc1=O ?
222 to 224 °C

What value of melting point has been reported for the following compound? C/C=C/c1cccc2c(=O)c(C)c(C(N)=O)oc12
243 to 245 °C

Can you share its melting point? I mean this compound: N#Cc1ccc(-c2cccc3cncn23)cc1
117 to 118 °C

Which measured melting point value corresponds to O=C(/C=C/c1ccc(S(=O)(=O)N2CCN(C(c3ccc(F)cc3)c3ccc(F)cc3)CC2)cc1)NO ?
125 to 126 °C

Look up melting point for this compound: CC(=NOC(=O)N(C)C)C1=CCCN(C)C1
54 to 55 °C

Quick check: melting point of CCCCn1nc(-c2ccccc2)c(CC(=O)O)c1-c1ccccc1 ?
97 to 98 °C

So what does the record say about melting point for O=C(Cc1ccccc1[N+](=O)[O-])c1c(O)c2cccnc2n(-c2ccccc2)c1=O ?
194 to 195 °C

Please look up its melting point: COC(=O)C1=C(C)NC(C)=C(C(=O)OCC2CCCO2)C1c1cccc(Cl)c1Cl (configuration not stated)
172 to 173 °C

Reported melting point for CCNC(=O)c1cccc(C2(c3ccc(OC(F)(F)F)cc3)N=C(N)N3CCCN=C32)c1 (configuration not stated) : what is it?
129 to 136 °C

Recorded melting point of CC1NC(=S)NN=C1c1ccccc1 (configuration not stated) , please.
213 to 214 °C

Record request: melting point value, item COCC1(CCCCCCCCCCCCC2(C(=O)NS(C)(=O)=O)CC2)CC1
44.6 to 45.3 °C

If you can, please state the reported melting point value of Cc1cc(-c2cc(C(F)F)n3ncc(C(=O)Nc4cccc(S(=O)(=O)N5CCCC5)c4)c3n2)ccc1C(F)(F)F .
226 °C

Dear colleague, I am looking for the recorded melting point of the following compound: COc1cc(NC2=C(Cl)C(=O)c3ccccc3C2=O)ccc1S(=O)(=O)Nc1ccccc1C
197 to 200 °C

Find the recorded melting point belonging to O=[N+]([O-])C1=C2N(CC3CCOC3)CCN2C2CCCC1O2 (configuration not stated) and report it.
115 to 117 °C

# get_value(readout='melting point', item= CCOC(=O)c1c(C)n(C(C)=O)c(=O)n1C(C)=O )
56 to 58 °C

What does the data say about its melting point? Entry: C[C@@H](N1CCN(C(=O)c2ccc(F)cc2F)CC1)[C@](O)(Cn1cncn1)c1ccc(F)cc1F
63 to 65 °C

====

Please go through the items and note down their melting point.

// lookup melting point for O=C(Cl)N1CC(Oc2ccccc2Cl)C1
80 to 82 °C

Can you look up the measured melting point of Cc1cc(-c2ccc(C(F)(F)F)c(C)c2)cc(-c2cccc(-c3cccc(S(N)(=O)=O)c3)n2)n1 for me?
> 250 °C

Which melting point value belongs to CC(=O)COC1CC2C3CCC4=CC(=O)C=CC4(C)C3(F)C(O)CC2(C)C1(O)C(=O)CCl (centres undefined) ?
226 to 227 °C

What value of melting point has been recorded for this entry: CC1(C)N=C(Oc2ccccn2)c2cc(F)ccc2O1
114 °C

Look up melting point: CC(=O)NS(=O)(=O)c1ccc(-c2c(Cl)nc(C(F)(F)F)nc2-c2ccc(S(C)(=O)=O)cc2)cc1
230 to 235 °C

Need melting point, item CC(C)(C#N)c1ccc(OCc2ccccc2)cc1
63 to 64 °C

I am curious: what melting point value has been reported for COc1cn(-c2cc(N3CCCC3=O)ccc2F)nc(-c2ccnn2-c2ccccc2)c1=O ?
171 to 174 °C

Tell me the measured melting point of O=C1C(=O)c2ccccc2C2=C1SCC1(CCN(Cc3c(F)cccc3Cl)CC1)O2 , please.
90 to 92 °C

Item S=C(NCc1ccccc1)Nc1ccc(NC(=S)NCc2ccccc2)cc1 has what recorded melting point?
198 °C

====

attribute.measured: melting point

Returns the measured melting point for the input compound. Input: CCn1cc(C(=O)O)c(=O)c2cc(Cl)c(N3CCOCC3)cc21
266 °C

Value lookup for melting point; key = Nc1cc2c3c(cc(N)cc3c1)C(=O)N(O)C2=O
329 to 336 °C

For O=C(NCCO)c1cccc(-c2ccc3c(c2)N(c2cc(Cl)cc(Cl)c2)CC3)c1 , what is its reported melting point?
108 to 109 °C
